# System: Vero E6 infected with SARS-CoV-2
# experiment-notes: inhibition of SARS-CoV-2 cytopathic effect; higher = more antiviral protection, active = above 15
# reported-conditions: 10000 nM; 48 h
Answer each item with its documented inhibition of SARS-CoV-2 cytopathic effect.
One number for each entry, in %.

CCC(=O)NO
2.29
OCC(O)CN1CCN(c2ccccc2)CC1 (centres undefined)
-3
CN1CCN(c2ccc3[nH]c(-c4ccc5[nH]c(-c6ccc(O)cc6)nc5c4)nc3c2)CC1
4.07
C[C@@H]1CN(Cc2ncccn2)C[C@H]1c1nc2c(cnn2C2CCOCC2)c(=O)[nH]1
-2.82
O=S(=O)(O)NC1CCCCC1
-3.53
N#CC[C@@H](C1CCCC1)n1cc(-c2ncnc3[nH]ccc23)cn1 [ruxolitinib-(S)]
-3.24

For every item in the list below, what is its measured inhibition of SARS-CoV-2 cytopathic effect?
1. C[N+](C)(C)CCOC(N)=O
2. CCN(CC)CCCCNc1ncc2cc(-c3cc(OC)cc(OC)c3)c(NC(=O)NC(C)(C)C)nc2n1
3. CC[C@H]1OC(=O)[C@H](C)[C@@H](O[C@H]2C[C@@](C)(OC)[C@@H](O)[C@H](C)O2)[C@H](C)[C@@H](O[C@@H]2O[C@H](C)C[C@H](N(C)C)[C@H]2O)[C@](C)(O)C[C@@H](C)C(=O)[C@H](C)[C@@H](O)[C@]1(C)O

[4.16, 45.1, 1.91]
